System: BT-549 breast
test.description: NCI-60 one-dose screen, 48 h (100 = growth as untreated, 0 = no growth, -100 = all killed)
condition: 10 µM unless noted
Compounds without any hit were thinned out: in the full panel of roughly 83,000, 20% have a hit.
attribute.measured: growth (%)
Give bare numbers, in %.

Study these solved cases before continuing.
>>> test_result("CCOc1c(B(O)O)cccc1-c1nc2ccc3[nH]ncc3c2c2c1CCCC2")
25.1
>>> test_result("COC(=O)Nc1ccc(-c2nc(-c3cccc(OC)c3)c(-c3ccnc(Br)c3)[nH]2)cc1")
72.7
>>> test_result("O=c1c2cc(F)cc(Cl)c2sc2c(NCCCNCCO)nc3ccccc3c12")
82.4
>>> test_result("CC(=O)N1CCN(c2ccc(OCC3CO[C@](Cn4ccnc4)(c4ccc(Cl)cc4Cl)O3)cc2)CC1 (some centres undefined)")
54.7
>>> test_result("Fc1cc(-c2nnc3sc(-c4ccc(Cl)cc4Cl)nn23)c(Cl)cc1Cl")
79.4

The following molecules each have a reported value; give each one's growth.
1. c1ccc2c(c1)Nc1ccncc1S2
2. C/C(=C\C(=O)c1ccc(Cl)cc1)c1ccc(Cl)cc1
3. CCCCn1c(-c2ccc(-c3nc(-c4ccc(Cl)cc4)no3)cc2)nc(-c2ccccc2)c1-c1ccccc1
4. COc1nc2ccc(C)cc2cc1-c1nc2c(cnn2-c2ccccc2)c(=O)[nH]1
5. c1ccc(-c2nc3sc(-c4ccccc4)cn3n2)cc1
6. CN(C(=O)NCc1cccc(F)c1Cl)[C@H](COC(=O)Nc1cc2ccccc2cn1)CC(O)CO (some centres undefined)
7. CCCCCCN(CCCCCC)c1ccc(/C=C2/SC(=O)NC2=O)c(C)c1
8. CN(C)CCCNc1nc2ccccc2c2c(=O)c3cc(F)ccc3sc12

Ans.
[75, 103, 101, 89.6, 99.9, 43.9, 98.3, 100]

The following molecules each have a reported value; give each one's growth.
1. COc1ccc(-c2[nH]ncc2-c2cc3c(c(OC)c2)OCC(=O)N3)cc1
2. O=[N+]([O-])c1ccccc1NCSc1ccc(Cl)cc1
3. O=c1[nH][n+](-c2ccc(Br)cc2)no1
4. NC(=O)Nc1ccc2ncnc(Nc3ccc(Cl)cc3)c2c1
5. Nc1cc2c(cc1Br)-c1cc(Cl)ccc1C2=O
6. O=C(O)CCC(=O)Nc1nnc(-c2ccccc2)s1

Ans.
38.4
69.2
83.1
92.4
121
102
